- assayed-system: CB2R (Homo sapiens)
- Sequence (P34972 whole entry): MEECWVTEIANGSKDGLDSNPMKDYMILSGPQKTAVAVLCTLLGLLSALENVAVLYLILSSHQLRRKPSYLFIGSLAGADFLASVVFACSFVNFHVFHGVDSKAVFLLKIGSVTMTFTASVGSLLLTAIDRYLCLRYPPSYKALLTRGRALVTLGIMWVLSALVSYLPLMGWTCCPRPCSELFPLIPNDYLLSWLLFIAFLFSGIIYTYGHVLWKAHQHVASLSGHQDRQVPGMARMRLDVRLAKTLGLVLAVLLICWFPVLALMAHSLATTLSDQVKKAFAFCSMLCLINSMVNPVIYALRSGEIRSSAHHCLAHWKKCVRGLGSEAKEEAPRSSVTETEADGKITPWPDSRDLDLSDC
- experiment: forskolin-stimulated cAMP accumulation assay in HEK293-CB2 cells
- details: forskolin 30 min, then compound 6 h, read-out: IC50 of inhibition of forskolin-stimulated cAMP
pIC50: −log10 of the molar value.
Recorded pIC50 determines the group label, using low value (below 6), medium value (6 to below 7), high value (7 or more)

Please let me know in which category the item CC(=O)OCC1=C[C@@H]2OC(=O)C3=CO[C@@H](O[C@@H]4O[C@H](CO)[C@@H](O)[C@H](O)[C@H]4O)[C@H]1[C@@H]32 [Asperuloside] belongs.
medium value

Please let me know in which category the item COC1=CC(=O)O[C@@H](CCc2ccc3c(c2)OCO3)C1 [Dihydromethysticin] belongs.
high value

Please let me know in which category the item COc1cc(O)c(C(=O)/C=C/c2ccc(O)cc2)c(OC)c1 belongs.
low value

Please let me know in which category the item COc1cc(/C=C/c2ccccc2)oc(=O)c1 belongs.
high value
